Can you tell me self-cleavage kobs at 160 uM GlcN6P for the items I'm about to list?
B1: glmS ribozyme (parent)
chain: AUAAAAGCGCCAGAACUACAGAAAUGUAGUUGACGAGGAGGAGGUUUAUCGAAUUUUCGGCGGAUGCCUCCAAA

variants of: B1; experiment: self-cleavage kobs at 160 uM GlcN6P; higher = faster cleavage; RNA array; settings: with glucosamine-6-phosphate
Fewer inactive variants are shown than the library holds.

Completed entries (count: 3):
G40C U69A ... < 1e-05 s⁻¹
G37U U65G ... < 1e-05 s⁻¹
C34U U56C ... < 1e-05 s⁻¹

Batch of 8 variants: report self-cleavage kobs at 160 uM GlcN6P for each.
1. U30A U56G
2. A1U U2G A3G A5U A6C G7C C8A G9U C10A C11A
3. U49G G60U
4. G32U G35A A42C
5. G66U C68U
6. C10A U31G A42U
7. G7U G32A G43A
8. U46G C71G

Ans.
0.000202 s⁻¹
< 1e-05 s⁻¹
< 1e-05 s⁻¹
< 1e-05 s⁻¹
3.82e-05 s⁻¹
< 1e-05 s⁻¹
< 1e-05 s⁻¹
5.99e-05 s⁻¹

Batch of 2 variants: report self-cleavage kobs at 160 uM GlcN6P for each.
1. U49C G62A
2. A15G G66C

Ans.
< 1e-05 s⁻¹
0.000115 s⁻¹

Batch of 2 variants: report self-cleavage kobs at 160 uM GlcN6P for each.
1. G37C G59C A64G C68A
2. C58G G60C

Ans.
["< 1e-05 s⁻¹", "< 1e-05 s⁻¹"]

All values here come from the supplement of paper PMC7125110.
